Each entry below lists one item and its recorded IC50 value.
tested system: unphosphorylated c-FMS kinase (uFMS, Seq. ID no. 1) (Homo sapiens, UniProt P07333)
Sequence (P07333 538-972): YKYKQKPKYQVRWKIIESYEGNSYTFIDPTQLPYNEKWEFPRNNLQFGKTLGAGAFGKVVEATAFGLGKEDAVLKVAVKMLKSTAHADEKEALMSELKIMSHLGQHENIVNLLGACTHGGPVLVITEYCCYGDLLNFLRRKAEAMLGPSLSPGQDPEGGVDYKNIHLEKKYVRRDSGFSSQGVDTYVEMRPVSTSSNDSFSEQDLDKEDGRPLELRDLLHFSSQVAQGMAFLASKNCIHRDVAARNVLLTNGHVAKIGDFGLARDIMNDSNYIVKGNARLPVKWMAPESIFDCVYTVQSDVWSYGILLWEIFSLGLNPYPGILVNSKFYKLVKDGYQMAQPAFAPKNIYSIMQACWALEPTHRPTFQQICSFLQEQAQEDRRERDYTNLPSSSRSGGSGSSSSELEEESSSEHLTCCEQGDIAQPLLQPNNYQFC
assay method text: uFMS kinase assay (pyruvate kinase/lactate dehydrogenase coupled)
assay setup: ATP 500 μM

{"columns": ["item smiles", "measured value"],
 "data": [
  ["CC1(C(=O)NC(=O)Nc2ccc(Oc3ccnc(NC(=O)C4CC4)c3)cn2)CC1", "< 10 nM"]
]}

(Q) Please tell me: IC50 of CC(C)C(=O)Nc1cc(Oc2ccc(NC(=O)NC(=O)C(C)(C)C)nc2)ccn1 , system unphosphorylated c-FMS kinase (uFMS, Seq. ID no. 1) (Homo sapiens, UniProt P07333)?
(A) 10 to 100 nM

(Q) Proceed to CC(C)(C)C(=O)NC(=O)Nc1ccc(Oc2ccnc(NC(=O)N3CCNCC3)c2)cn1
(A) < 10 nM

(Q) Proceed to CN(C)C1CN(C(=O)Nc2cc(Oc3ccc(NC(=O)NC(=O)C(C)(C)C)nc3)ccn2)C1
(A) < 10 nM
